The reported numbers originate from PubChem BioAssay AID689.

TARGET UNDER TEST: Ephrin type-A receptor 4 (Mus musculus) (UniProt Q03137)
Sequence (Q03137 whole entry, looked up): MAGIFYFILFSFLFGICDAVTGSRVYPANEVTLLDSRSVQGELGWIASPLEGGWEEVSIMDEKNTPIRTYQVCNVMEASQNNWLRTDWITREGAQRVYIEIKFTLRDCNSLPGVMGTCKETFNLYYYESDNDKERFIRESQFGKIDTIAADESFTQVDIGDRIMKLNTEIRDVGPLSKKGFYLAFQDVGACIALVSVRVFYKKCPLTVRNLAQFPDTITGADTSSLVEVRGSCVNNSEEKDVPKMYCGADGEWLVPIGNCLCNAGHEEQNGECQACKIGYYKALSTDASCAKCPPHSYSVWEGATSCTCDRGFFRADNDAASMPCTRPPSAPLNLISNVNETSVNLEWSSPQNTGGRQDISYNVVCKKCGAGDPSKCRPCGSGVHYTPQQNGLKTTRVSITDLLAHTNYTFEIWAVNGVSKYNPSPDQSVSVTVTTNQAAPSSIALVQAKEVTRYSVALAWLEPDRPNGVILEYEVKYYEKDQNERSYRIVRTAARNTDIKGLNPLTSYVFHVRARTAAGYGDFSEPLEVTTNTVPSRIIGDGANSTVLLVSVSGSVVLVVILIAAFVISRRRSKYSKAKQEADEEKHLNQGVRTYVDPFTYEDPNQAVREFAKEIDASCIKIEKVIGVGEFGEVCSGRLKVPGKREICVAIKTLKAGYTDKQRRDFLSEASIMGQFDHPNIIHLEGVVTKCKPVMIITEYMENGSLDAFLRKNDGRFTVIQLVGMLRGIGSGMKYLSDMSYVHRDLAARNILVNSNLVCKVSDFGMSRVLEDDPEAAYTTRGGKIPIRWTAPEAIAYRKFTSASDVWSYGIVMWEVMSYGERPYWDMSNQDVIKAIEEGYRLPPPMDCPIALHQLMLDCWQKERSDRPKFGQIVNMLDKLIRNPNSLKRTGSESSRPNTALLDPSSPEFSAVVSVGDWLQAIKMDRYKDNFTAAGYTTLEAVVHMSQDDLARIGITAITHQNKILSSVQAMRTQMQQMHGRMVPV
ASSAY SUMMARY: inhibitors of EphA4 binding to KYL peptide, primary screen, biochemical, colorimetric, mouse EphA4 (AID 689)
STUDY CONDITIONS: EphA4-AP binding to KYL peptide, pNPP A405, at 10 µM, hits give high values
In all, about 62,000 compounds went through this assay and about 80 (0.1%) were called active. Not all results are given here. Entries with a potency or affinity are not part of this list.
READOUT: inhibition

### Prompt // returns reported inhibition for input CCN(CC(=O)Nc1ccc2c(c1)OCCO2)c1ccc(S(=O)(=O)N2CCOCC2)cn1
### Response -6.5% (inactive)

### Prompt Now the same for CCc1nc(SCc2nc3ccccc3[nH]2)c2oc3ccccc3c2n1
### Response 12.7% (inactive)

### Prompt Now the same for Cn1c(SCC(=O)N2CCOCC2)nc2cccnc21
### Response 2.2% (inactive)

### Prompt Now the same for CCOC(=O)C1CCCN(C(=O)COc2ccccc2O)C1 (stereo not given)
### Response -0.6% (inactive)

### Prompt Now the same for Cc1ccc(/C=C/C2=Cc3c(sc(NC(=O)CSc4n[nH]c(N)n4)c3C#N)C(C)(C)C2)o1
### Response 44.8% (inactive)

***
### Prompt // returns reported inhibition for input Cc1sc(NC(=O)CSc2nnc(C)c(=O)[nH]2)c(C#N)c1C
### Response -25.1% (inactive)

### Prompt Now the same for CCOc1ccc(NC(=O)CSc2nc(C)c3c(c2C#N)CCCC3)cc1
### Response -14.6% (inactive)

* * *

inhibition values by entry
TARGET UNDER TEST: Ephrin type-A receptor 4 (Mus musculus) (UniProt Q03137)
ASSAY SUMMARY: inhibitors of EphA4 binding to KYL peptide, primary screen, biochemical, colorimetric, mouse EphA4 (AID 689)
STUDY CONDITIONS: EphA4-AP binding to KYL peptide, pNPP A405, at 10 µM, hits give high values
Hit rate of the full screen: of about 62,000 compounds, about 80 (0.1%) were called active. These entries were drawn from the full list. Entries with a potency or affinity are not part of this list.

Solved cases below.
### Prompt // returns reported inhibition for input CC1(C)CC(NC(=O)c2coc(=O)c(Br)c2)CC(C)(C)N1
### Response -9.8% (inactive)

### Prompt Now the same for CCOC(=O)C(O)(CCC(O)(C(=O)OCC)C(=O)OCC)C(=O)OCC
### Response -4.3% (inactive)

### Prompt Now the same for Cc1ccc2ccc(C(Nc3ccccn3)c3ccccc3)c(O)c2n1 (configuration not stated)
### Response 18.4% (inactive)

### Prompt Now the same for CC(=O)Nc1ccc(S(=O)(=O)N2CCN(C34CC5CC(CC(C5)C3)C4)CC2)cc1
### Response -1.8% (inactive)

### Prompt Now the same for Cc1cc(OCC(=O)O/N=C(\N)Cc2cccs2)ccc1Br
### Response -4.6% (inactive)

***
### Prompt // returns reported inhibition for input COc1ccc(C(=O)NCCCn2ccnc2)cc1
### Response 3% (inactive)

### Prompt Now the same for Cc1nn(-c2ccc(Cl)cc2)c2sc(C(=O)N3CCN(C(=O)c4ccco4)CC3)cc12
### Response -24.1% (inactive)

### Prompt Now the same for O=C(c1coc(=O)c(Br)c1)N1CCCc2ccccc21
### Response 21.7% (inactive)

### Prompt Now the same for CC1(C)N=C(c2ccc(Cl)cc2Cl)C(=O)N1
### Response -8.8% (inactive)

### Prompt Now the same for CCCCN(C)C/C(O)=C(\C#N)c1nc(-c2ccccc2)cs1
### Response -4.9% (inactive)

### Prompt Now the same for CCCSC1=N/C(=C\c2ccsc2)C(=O)S1
### Response -0.1% (inactive)
